PROCEDURE_TEXT: gradient 5% acetonitrile 3 min, to 50% in 2 min, to 85% in 15 min, held 3 min, 100 µL/min
MEASUREMENT_PARAMETERS: column: Zorbax Extend-C18 2.1 x 50 mm; eluents: water / acetonitrile, 0.1% formic acid
RESULT_TYPE: RP-LC retention time (s)
Give bare numbers, in s.

CCn1ccc2cc(S(=O)(=O)N3CCCC(C(=O)NCCCN(C)Cc4ccccc4)C3)ccc21 (centres undefined); 715
Cc1nc(-c2cc3cccc(C)c3nc2N2CCN(c3ccccc3F)CC2)no1; 733
COc1ccc(CNC(=O)c2cn(C)nc2S(=O)(=O)N2CCSCC2)c(OC)c1; 855
CN(CCO)c1cc(N2CCN(c3ccccn3)CC2)c2noc3c2c1C(=O)c1ccccc1-3; 614
CCc1nc(-c2cccc(-c3noc(CN4C(=O)COc5ccc(Cl)cc54)n3)c2)cs1; 1240
O=C(NCC1CCCO1)N1CC(c2nc(CCOCc3ccccc3)no2)C1 (centres undefined); 713
CC(C)n1nnc2cc(S(=O)(=O)N3CCCC3C(=O)N3CCN(c4ccccn4)CC3)ccc21 (centres undefined); 609
Cc1oc(-c2[nH]ncc2C(=O)N(C)C)cc1S(=O)(=O)NCc1ccco1; 622

Consider the additional molecule presented here.
Query: // fetch RP-LC retention time given entry C[C@@H](Oc1cc(-n2cnc3ccc(CN4CCN(C)CC4)cc32)sc1C(N)=O)c1ccccc1C(F)(F)F
Response: 690
